Ref: ChEMBL document CHEMBL4513216

Test: Toxicity liver stage against HepG2, at 10uM
Format: cell-based
Set-up: test concentration 10 uM, cell line HepG2-A16-CD81EGFP
Details: human, HepG2-A16-CD81EGFP cells; read-out: INHIBITION

{"columns": ["Compound", "Unit Descriptor", "cytotoxicity at 10 µM"],
 "data": [
  ["CCN1CC2(CCN(Cc3nc(CSC)no3)CC2)CC1=O", "%", -1.41],
  ["CN(Cc1cnn(C)c1)C(=O)C1CCCN1Cc1ccccn1 (stereo not drawn)", "%", -25.8],
  ["COc1cc(CNC(=O)c2csc(Br)c2)ccn1", "%", -5.76]
]}

====

Reported cytotoxicity at 10 µM by item:
Assay: Toxicity liver stage against HepG2, at 10uM
Type: cell-based
Set-up: test concentration 10 uM, cell line HepG2-A16-CD81EGFP
Details: human, HepG2-A16-CD81EGFP cells; read-out: INHIBITION

{"columns": ["Molecule", "cytotoxicity at 10 µM / %"],
 "data": [
  ["O=C([C@H]1C[C@H]2OCC[C@H]2N(CCc2ccccc2)C1)N1CCCO1", -72.8],
  ["COCCN(Cc1ccco1)Cc1nc(-c2ccccc2)no1", 6.4],
  ["COCC(C)NC(=O)c1nnn(-c2ccc(F)cc2)n1 (stereo not drawn)", -20.6]
]}

====

Reported cytotoxicity at 10 µM by item:
Test: Toxicity liver stage against HepG2, at 10uM
Format: cell-based
Parameters: test concentration 10 uM, cell line HepG2-A16-CD81EGFP
Conditions: human, HepG2-A16-CD81EGFP cells; read-out: INHIBITION
Measurement Label: cytotoxicity at 10 µM (%)

{"columns": ["Compound", "Value Reported"],
 "data": [
  ["Cn1ccnc1CN1CCCC1CCc1ccccc1 (stereo unspecified)", 13.8],
  ["Cc1noc(CCCNC(=O)C2CSCN2C(=O)C(C)(C)C)n1 (stereo unspecified)", -54.4],
  ["Cc1n[nH]c(=O)c2c(NC(=O)CN3CCOCC3)oc(C)c12", -7.95],
  ["O=C1COC2(CCN(CC3CC3)CC2)CN1c1ccsc1", -79.2],
  ["c1csc(-c2noc(CN3CCc4cncnc4C3)n2)c1", -9.5],
  ["O=C(c1cccn1Cc1cccs1)N1CCN(C2CC2)CC1", -10.4],
  ["COc1ccc(F)cc1CN1CCCC(c2cc(C(N)=O)[nH]n2)C1 (stereo unspecified)", 0.313],
  ["CSc1cc2c(cc1NC(=O)NCc1ccco1)OCCO2", -5.08],
  ["c1cnc(-c2nn3c(CN4CCOCC4)nnc3s2)cn1", 7.74],
  ["Cc1cc(C(=O)N2CCCC2CN2CCCC2)no1 (stereo unspecified)", 10],
  ["NC(=O)c1ccc(-n2ccnc2-c2cccc(O)c2)cc1N1CCCC1", 15.8],
  ["CCc1nc(C)c([C@H]2CN(C)C[C@@H]2C(=O)NC(C)(C)c2ccccc2)[nH]1", 2.12],
  ["CC(NC(=O)NCCOc1ccc(Cl)cc1)c1nncn1C (stereo unspecified)", -8.47],
  ["CCOCC(=O)N1CCC(c2nccn2C)CC1", -53.4],
  ["c1cnc(N2CCCC3(CCN(Cc4ccncc4)C3)C2)nc1 (stereo unspecified)", 0.436],
  ["CC(C)Oc1ccc(C(=O)N2CC[C@H](O)[C@@H](n3ccnc3)CC2)cc1", -12.8]
]}

====

Experiment: Toxicity liver stage against HepG2, at 10uM
Type: cell-based
Set-up: test concentration 10 uM, cell line HepG2-A16-CD81EGFP
Conditions: human, HepG2-A16-CD81EGFP cells; read-out: INHIBITION
Reported cytotoxicity at 10 µM by item:
Measurement Label: cytotoxicity at 10 µM (%)

{"columns": ["Compound", "Unit Descriptor", "Value Reported"],
 "data": [
  ["Cc1cc(C(=O)N2CC[C@@]3(C[C@@H](NS(C)(=O)=O)CCO3)C2)no1", "%", -61.1],
  ["O=C(NCC1CC1)c1cnc(-c2ccccc2)nc1", "%", 7.5],
  ["CC1c2ncc(CN3CCN(C)CC3)n2CCN1Cc1ccc(F)cc1 (centres undefined)", "%", 2.49],
  ["Fc1cccc(Nc2nc(N3CCCC3)nc3c2CNCC3)c1", "%", -18]
]}

====

Test: Toxicity liver stage against HepG2, at 10uM
Format: cell-based
Set-up: test concentration 10 uM, cell line HepG2-A16-CD81EGFP
Conditions: human, HepG2-A16-CD81EGFP cells; read-out: INHIBITION
Reported cytotoxicity at 10 µM by item:
Measurement Label: cytotoxicity at 10 µM (%)

{"columns": ["Molecule", "Measurement Label", "Value Reported"],
 "data": [
  ["Cc1occc1C(=O)N1CCC2(CC1)C(c1cnn(C)c1)CC(=O)N2C (stereo not drawn)", "cytotoxicity at 10 µM", 5.66],
  ["CCN(Cc1cc(F)ccc1Cl)C1CCS(=O)(=O)C1 (stereo not drawn)", "cytotoxicity at 10 µM", 5.29],
  ["Cc1cccc(C)c1Nc1noc2c1CN(C(=O)c1c[nH]nc1C)CC2", "cytotoxicity at 10 µM", 6.22],
  ["CN(C)C(=O)C1(c2cnccn2)CCCN1C(=O)Cc1ccsc1 (stereo not drawn)", "cytotoxicity at 10 µM", -1.84],
  ["Cc1nc(CC(=O)N2c3ccccc3OCC2C)cs1 (stereo not drawn)", "cytotoxicity at 10 µM", -6.53],
  ["[O-][S+](Cc1c(F)cccc1Cl)Cc1nnnn1C1CC1 (stereo not drawn)", "cytotoxicity at 10 µM", 0.0902],
  ["N[C@H]1CN(C(=O)c2ccccc2OCCc2ccccc2)C[C@@H]1C1CC1", "cytotoxicity at 10 µM", -2.68],
  ["CCc1nnc2n1CCN(C(=O)c1ccc3c(c1)[nH]c(=O)n3C)C2", "cytotoxicity at 10 µM", -3.22],
  ["CC(C)(C)c1cn(C2CCN(C(=O)c3cncnc3)CC2)nn1", "cytotoxicity at 10 µM", 13],
  ["Cc1c(CN2CCOCC2)c(O)n(CCc2ccccc2)c(=O)c1C#N", "cytotoxicity at 10 µM", 4.1],
  ["CNc1ccnc(NCCC(=O)Nc2ccccc2OC)n1", "cytotoxicity at 10 µM", -1.62],
  ["Cc1ccc(-c2cc(-c3c(C)nn(CCO)c3C)c(C#N)c(N)n2)cc1", "cytotoxicity at 10 µM", 15],
  ["COCCN1CCCC12CCCN(c1nncs1)C2 (stereo not drawn)", "cytotoxicity at 10 µM", 9.79],
  ["COc1ccc(-c2noc(CNC(C)Cn3cccn3)n2)c(OC)c1 (stereo not drawn)", "cytotoxicity at 10 µM", -0.144],
  ["CC1CCCCN1CCNC(=O)c1ccn(-c2ccc(F)cc2)n1 (stereo not drawn)", "cytotoxicity at 10 µM", -1.91],
  ["CCN(Cc1ccncc1)Cc1cn(-c2ccccc2)nn1", "cytotoxicity at 10 µM", -49.8],
  ["O=C1CCN(Cc2cnc3c(-c4ccccc4)cnn3c2)CCN1", "cytotoxicity at 10 µM", 11],
  ["O=C(NCc1ccoc1)Nc1ccc(CN2CCOC2=O)cc1", "cytotoxicity at 10 µM", 14.1],
  ["Cn1ncc2c1C(COCC1CC1)N(Cc1ccoc1)CC2 (stereo not drawn)", "cytotoxicity at 10 µM", 1.04],
  ["CN1CCC(N(CCc2ccccc2)C(=O)c2ccc(C#N)cc2)CC1", "cytotoxicity at 10 µM", -2.37],
  ["Nc1nc(N)c2c(n1)OC1(CCN(C(=O)CC3CCCCN3)CC1)C2 (stereo not drawn)", "cytotoxicity at 10 µM", -0.24],
  ["Cc1ccccc1CC(=O)N(C)CC1(O)CCCN(c2ccccn2)C1 (stereo not drawn)", "cytotoxicity at 10 µM", -18.3],
  ["COc1cccc(OC)c1OCCN1C(=O)CCNC1=O", "cytotoxicity at 10 µM", -7.89],
  ["COCCOCC(=O)N1CCC(O)(c2ccc3nc(C)ccc3c2)CC1", "cytotoxicity at 10 µM", -1.01],
  ["CC(=O)N1CC2(CCCCN2Cc2ccc(Cl)cc2)Cc2ccccc21 (stereo not drawn)", "cytotoxicity at 10 µM", 14.5],
  ["Cc1ccc(C(=O)N2C[C@@H]3CCCO[C@@H]3[C@H](N3CCOCC3)C2)cn1", "cytotoxicity at 10 µM", -3.4],
  ["CC(C)n1cc(CN2CCCN(C(=O)CC3CCCCC3)CC2)cn1", "cytotoxicity at 10 µM", -10.8],
  ["Cc1cccc(NC(=O)[C@@H]2CCCN2Cc2ccc(C#N)cc2F)n1", "cytotoxicity at 10 µM", -5.64],
  ["CN(CC1COc2ccccc2O1)C(=O)NCCCn1ccnc1 (stereo not drawn)", "cytotoxicity at 10 µM", -5.54],
  ["CN1CCN(Cc2ccco2)Cc2cccnc21", "cytotoxicity at 10 µM", 2.04],
  ["Cc1ccsc1CN(CCN(C)C)C(=O)c1ccc(C#N)nc1", "cytotoxicity at 10 µM", -120],
  ["COc1ccccc1CNC1(CCO)CCOCC1", "cytotoxicity at 10 µM", 20.5],
  ["O=C(c1ccnnc1)N1CC[C@H]2C[C@H](c3ccncn3)O[C@@H]2C1", "cytotoxicity at 10 µM", -71.8],
  ["Cc1ccc(CC(=O)N2CC[C@@H]3CN(CCN(C)C)CCO[C@@H]3C2)cc1", "cytotoxicity at 10 µM", 2.73],
  ["Cc1nn(C)c(C)c1CNCc1ccc(N2CCOCC2)nc1", "cytotoxicity at 10 µM", 3.68],
  ["C[C@@H]1CN(C(=O)C2(Cn3cccn3)CC2)CC[C@@]1(O)C1CC1", "cytotoxicity at 10 µM", -2.6],
  ["NC(=O)CN1CCC(C(=O)NCc2ccc3c(c2)OCCCO3)CC1", "cytotoxicity at 10 µM", -6.42],
  ["O=C(O)[C@]12CCCN(C3CCOC3)C[C@H]1CN(c1nncs1)C2 (stereo partly drawn)", "cytotoxicity at 10 µM", -106]
]}
